Collected Kd values appear next to each entry.
assay-system: T1, cynomolgus monkey TREM2 Fc fusion (entire TREM2 ECD; only one Fc arm fused to TREM2) (cynomolgus monkey, UniProt Q9NZC2 19-174 (human entry))
T1 construct: also called cyno TREM2-Fc
T1 chain: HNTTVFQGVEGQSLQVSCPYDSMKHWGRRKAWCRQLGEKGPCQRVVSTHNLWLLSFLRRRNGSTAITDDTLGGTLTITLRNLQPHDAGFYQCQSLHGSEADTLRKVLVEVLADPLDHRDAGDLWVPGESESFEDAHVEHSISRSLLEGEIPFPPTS
experimental-protocol: BLI, Fab, monovalent
Please state the figure in nM; there is no need to write the unit.

The cases that follow already have their Kd on record.
AL2p-51 (antibody, V domains shown, Fab and IgG formats under one id) VH: QVQLVQSGAEVKKPGSSVKVSCKASGYAFSSHWMNWVRQAPGQGLEWMGRIYPGEGDTNYAQKFHGRVTITADESTSTAYMELSSLRSEDTAVYYCARLLRNQPGESYAMDYWGQGTLVTVSS VL: DVVMTQTPLSLSVTPGQPASISCRTSQSLVHSNQYTYLHWYLQKPGQSPQLLIYKVSNRVSGVPDRFSGSGSGTDFTLKISRVEAEDVGVYYCSQSTRVPYTFGQGTKLEIK : 27.2
AL2p-7 (antibody, V domains shown, Fab and IgG formats under one id) VH: QVQLVQSGAEVKKPGSSVKVSCKASGYAFSLSWMNWVRQAPGQGLEWMGRIYPGDGDTNYAQKFRGRVTITADESTSTAYMELSSLRSEDTAVYYCARLLRNQPGESYAMDYWGQGTLVTVSS VL: GVVMTQTPLSLSVTPGQPASISCRSSQSLIHSNGYTYLHWYLQKPGQSPQLLIYKVSNRRSGVPDRFSGSGSGTDFTLKISRVEAEDVGVYYCSQSTRVPYTFGQGTKLEIK : 8.95

What value of Kd has been recorded for this entry: AL2p-48 (antibody, V domains shown, Fab and IgG formats under one id) VH: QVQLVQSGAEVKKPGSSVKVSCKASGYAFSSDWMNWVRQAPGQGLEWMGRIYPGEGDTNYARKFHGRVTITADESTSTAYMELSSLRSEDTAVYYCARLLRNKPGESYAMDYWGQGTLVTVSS VL: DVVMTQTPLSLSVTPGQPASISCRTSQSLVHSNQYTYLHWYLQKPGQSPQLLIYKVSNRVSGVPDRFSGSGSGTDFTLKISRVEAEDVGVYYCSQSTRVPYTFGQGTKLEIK 14.9

Each recorded value in this set is attributed to patent US20200317776A1.
